B1: TPR 5TU (parent)
chain: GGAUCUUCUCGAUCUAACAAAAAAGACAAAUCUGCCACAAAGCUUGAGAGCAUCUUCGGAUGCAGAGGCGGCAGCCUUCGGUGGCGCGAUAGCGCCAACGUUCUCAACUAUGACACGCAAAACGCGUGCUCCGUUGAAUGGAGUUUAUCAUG

- Variants of: B1
- experiment: polymerase ribozyme fitness, log enrichment relative to wild type (log ratio); higher = more active; in vitro selection for triplet polymerase activity
This sample holds only a part of the variants without activity.
polymerase ribozyme fitness (log ratio) by entry:

What does the data say about its polymerase ribozyme fitness (log ratio)? Entry: A52C A91U C93A G133C
≤ -4.2

---
Give the measured polymerase ribozyme fitness (log ratio) of G11C A17U C79G G86U U101G C125U G152A .
≤ -4.2
